kon for assorted binders
Molecular target: T1, Wild type CD117 purified protein (human, UniProt P10721 26-520, limits assumed)
T1 construct: Protein used in BLI/kinetics and cryo-EM; also called wt CD117; Wt CD117
T1 sequence (P10721 26-520 limits assumed): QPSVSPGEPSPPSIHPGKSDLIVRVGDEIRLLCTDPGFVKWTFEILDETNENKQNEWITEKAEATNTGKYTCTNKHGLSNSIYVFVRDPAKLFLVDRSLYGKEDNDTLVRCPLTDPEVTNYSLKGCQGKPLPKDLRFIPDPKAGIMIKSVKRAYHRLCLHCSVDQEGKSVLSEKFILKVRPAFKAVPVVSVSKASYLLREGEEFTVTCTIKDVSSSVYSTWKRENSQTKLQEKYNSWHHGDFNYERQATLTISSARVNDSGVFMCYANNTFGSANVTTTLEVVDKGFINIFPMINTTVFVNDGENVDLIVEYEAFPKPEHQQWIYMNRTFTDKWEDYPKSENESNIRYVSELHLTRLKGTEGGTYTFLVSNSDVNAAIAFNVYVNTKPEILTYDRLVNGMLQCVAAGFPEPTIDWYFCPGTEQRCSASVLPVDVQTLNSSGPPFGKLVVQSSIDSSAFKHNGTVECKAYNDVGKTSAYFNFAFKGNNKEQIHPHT
Test: monovalent KD, CD117 titrated (FIGS. 73A-73E)
The response must be a number in M⁻¹ s⁻¹ with no trailing unit.

Some binders with recorded kon:
ABTx206 (antibody, human IgG1, V domains shown) VH: EVQLVESGGGLVQPGRSLRLSCAASGFTFDDYAMHWVRQAPGKGLEWVSGISWNSGTIGYADSVKGRFTNSRDNAKNSLYLEMNSLRAEDTALYYCAKDSPPGYCSSASCYGAFDIRGQGTMVTVSS VL: DIVMTQSPSFLSASVGDRVTITCRASQGISSYLAWYQQKPGKAPKLLIYAASTLQNGVPSRFSGSGSGTDFTLTITSLQPEDFATYYCQQSYSTPYTFGQGTKLEIK :: 40300
ABTx205 (antibody, human IgG1, V domains shown) VH: EVQLVESGGGLVQPGRSLRLSCAASGFTFDDYAMHWVRQAPGKGLEWVSGISWNSGTIGYADSVKGRFTNSRDNAKNSLYLEMNSLRAEDTALYYCAKDSPPGYCSSASCYGAFDIWGQGTMVTVSS VL: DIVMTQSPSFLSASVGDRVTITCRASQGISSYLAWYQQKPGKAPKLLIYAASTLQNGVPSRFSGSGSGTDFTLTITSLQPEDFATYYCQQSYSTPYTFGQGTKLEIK :: 56600
ABTx202 (antibody, human IgG1, V domains shown) VH: EVQLVESGGGLVQPGRSLRLSCAASGFTFDDYAMHWVRQAPGKGLEWVSGISWNSGTIGYADSVKGRFTSSRDNAKNSLYLEMNSLRAEDTALYYCAKDSPPGYCSSASCYGAFDIWGQGTMVTVSS VL: EIVMTQSPGTLSLSPGERATLSCRASQSVSSSYLAWYQQKPGQAPRLLIYGSSTRATGIPARFSGSGSGTEFALTISSLQSEDFAVYYCQQYNFWPYTFGQGTKVEIK :: 57800
ABTx203 (antibody, human IgG1, V domains shown) VH: EVQLVESGGGLVQPGRSLRLSCAASGFTFDDYAMHWVRQAPGKGLEWVSGISWNSGTIGYADSVKGRFTNSRDNAKNSLYLEMNSLRAEDTALYYCAKDWPSGFCSSAYCYGAFDIWGQGTMVTVSS VL: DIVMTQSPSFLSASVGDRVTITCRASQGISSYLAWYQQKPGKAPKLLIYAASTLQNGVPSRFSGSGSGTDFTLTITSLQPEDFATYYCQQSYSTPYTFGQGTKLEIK :: 97100
ABTx196 (antibody, human IgG1, V domains shown) VH: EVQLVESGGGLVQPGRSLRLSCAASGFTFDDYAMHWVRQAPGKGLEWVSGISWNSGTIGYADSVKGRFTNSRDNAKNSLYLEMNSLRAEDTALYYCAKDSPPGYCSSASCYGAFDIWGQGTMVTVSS VL: DVVMTQSPGTLSLSPGERATLSCRASQSVSSSYLAWYQQKPGQAPRLLIYGASSRATGIPDRFSGSGSGTDFTLTISRLEPEDFAVYYCQQSETCLTFGGGTKLEIK :: 84400

Next up:
What does the data say about its kon? Entry: ABTx198 (antibody, human IgG1, V domains shown) VH: EVQLVESGGGLVQPGRSLRLSCAASGFTFDDYAMHWVRQAPGKGLEWVSGISWNSGTIGYADSVKGRFTNSRDNAKNSLYLEMNSLRAEDTALYYCAKDSPPGYCASASCYGAFDIWGQGTMVTVSS VL: DVVMTQSPGTLSLSPGERATLSCRASQSVSSSYLAWYQQKPGQAPRLLIYGASSRATGIPDRFSGSGSGTDFTLTISRLEPEDFAVYYCQQDSLGLTFGGGTKLEIK
72800
